B1: library; numbered along this chain (parent)
chain: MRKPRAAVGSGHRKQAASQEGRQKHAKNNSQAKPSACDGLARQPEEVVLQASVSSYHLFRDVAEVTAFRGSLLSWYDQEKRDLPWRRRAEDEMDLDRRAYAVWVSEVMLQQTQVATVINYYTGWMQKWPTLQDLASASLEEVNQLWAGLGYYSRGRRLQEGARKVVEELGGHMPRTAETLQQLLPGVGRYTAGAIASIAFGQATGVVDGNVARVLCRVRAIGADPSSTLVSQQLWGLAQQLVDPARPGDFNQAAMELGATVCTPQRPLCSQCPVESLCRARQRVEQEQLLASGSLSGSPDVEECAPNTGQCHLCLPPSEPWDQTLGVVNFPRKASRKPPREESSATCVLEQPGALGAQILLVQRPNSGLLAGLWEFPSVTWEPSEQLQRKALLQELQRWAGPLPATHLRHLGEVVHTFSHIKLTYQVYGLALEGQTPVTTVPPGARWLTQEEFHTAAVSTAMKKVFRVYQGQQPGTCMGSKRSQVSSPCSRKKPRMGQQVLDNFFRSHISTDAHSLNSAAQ

Variants of: B1
Experiment: 8OG:A repair function score (normalized; synonymous = 0, nonsense = -1) (normalized log-likelihood score); higher = more repair activity (WT-like);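 note: cells sorted at 72 h after reporter transfection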
Settings: with 8OG:A DNA repair reporter (GFP) in HEK-293 MUTYH KO cells
Think of -0.4 as a floor: if 8OG:A repair function score stands on it or above, it is yes (1); beneath it, no (0).

T176S | yes (1)
V211M | yes (1)
A445F | no (0)
Y100M | no (0)
Q111P | no (0)

Record A212D ; criterion: 8OG:A repair function score no lower than -0.4. Met?
no (0)
